methodNotes: Comparative tests for stability of the crystalline form E and other crystalline forms (storage, total impurity and content)
Format: physicochemical
protocolConditions: Freezing −20° C., month 6
observedProperty: Content
Please make sure the unit comes right after the number.

Example cases with answers are listed next.
C[C@@H](O)[C@H]1C(=O)N2C(C(=O)[O-])=C(S[C@@H]3CN[C@H](C(=O)Nc4cccc(C(=O)O)c4)C3)[C@H](C)[C@H]12.[Na+] [Crystalline form D, ertapenem sodium] = 98.7%
C[C@@H](O)[C@H]1C(=O)N2C(C(=O)[O-])=C(S[C@@H]3CN[C@H](C(=O)Nc4cccc(C(=O)O)c4)C3)[C@H](C)[C@H]12.[Na+] [Amorphous, ertapenem sodium] = 98.5%

# compound C[C@@H](O)[C@H]1C(=O)N2C(C(=O)[O-])=C(S[C@@H]3CN[C@H](C(=O)Nc4cccc(C(=O)O)c4)C3)[C@H](C)[C@H]12.[Na+] [Crystalline form A, ertapenem sodium] ; its Content = 99.1%

---

methodNotes: Comparative tests for stability of the crystalline form E and other crystalline forms (storage, total impurity and content)
Assay type: physicochemical
protocolConditions: Freezing −20° C., month 9
observedProperty: Content
# include the unit after the value

Use the examples below as a reference point.
C[C@@H](O)[C@H]1C(=O)N2C(C(=O)[O-])=C(S[C@@H]3CN[C@H](C(=O)Nc4cccc(C(=O)O)c4)C3)[C@H](C)[C@H]12.[Na+] [Crystalline form A, ertapenem sodium] = 99.2%
C[C@@H](O)[C@H]1C(=O)N2C(C(=O)[O-])=C(S[C@@H]3CN[C@H](C(=O)Nc4cccc(C(=O)O)c4)C3)[C@H](C)[C@H]12.[Na+] (relative stereo) [Crystalline form E] = 99.0%
C[C@@H](O)[C@H]1C(=O)N2C(C(=O)[O-])=C(S[C@@H]3CN[C@H](C(=O)Nc4cccc(C(=O)O)c4)C3)[C@H](C)[C@H]12.[Na+] [Amorphous, ertapenem sodium] = 98.2%
C[C@@H](O)[C@H]1C(=O)N2C(C(=O)[O-])=C(S[C@@H]3CN[C@H](C(=O)Nc4cccc(C(=O)O)c4)C3)[C@H](C)[C@H]12.[Na+] [Crystalline form C, ertapenem sodium] = 99.2%
C[C@@H](O)[C@H]1C(=O)N2C(C(=O)[O-])=C(S[C@@H]3CN[C@H](C(=O)Nc4cccc(C(=O)O)c4)C3)[C@H](C)[C@H]12.[Na+] [Crystalline form B, ertapenem sodium] = 99.0%

# input for lookup
# Content of C[C@@H](O)[C@H]1C(=O)N2C(C(=O)[O-])=C(S[C@@H]3CN[C@H](C(=O)Nc4cccc(C(=O)O)c4)C3)[C@H](C)[C@H]12.[Na+] [Crystalline form D, ertapenem sodium] = 98.6%

---

methodNotes: Comparative tests for stability of the crystalline form E and other crystalline forms (storage, total impurity and content)
Format: physicochemical
protocolConditions: Refrigerating 6° C., month 3
observedProperty: Content (%)
Entry rule: numbers only, all in %.

Some solved cases for reference:
C[C@@H](O)[C@H]1C(=O)N2C(C(=O)[O-])=C(S[C@@H]3CN[C@H](C(=O)Nc4cccc(C(=O)O)c4)C3)[C@H](C)[C@H]12.[Na+] [Crystalline form D, ertapenem sodium] = 98.0
C[C@@H](O)[C@H]1C(=O)N2C(C(=O)[O-])=C(S[C@@H]3CN[C@H](C(=O)Nc4cccc(C(=O)O)c4)C3)[C@H](C)[C@H]12.[Na+] [Amorphous, ertapenem sodium] = 97.9
C[C@@H](O)[C@H]1C(=O)N2C(C(=O)[O-])=C(S[C@@H]3CN[C@H](C(=O)Nc4cccc(C(=O)O)c4)C3)[C@H](C)[C@H]12.[Na+] [Crystalline form A, ertapenem sodium] = 98.6
C[C@@H](O)[C@H]1C(=O)N2C(C(=O)[O-])=C(S[C@@H]3CN[C@H](C(=O)Nc4cccc(C(=O)O)c4)C3)[C@H](C)[C@H]12.[Na+] (relative stereo) [Crystalline form E] = 98.5
C[C@@H](O)[C@H]1C(=O)N2C(C(=O)[O-])=C(S[C@@H]3CN[C@H](C(=O)Nc4cccc(C(=O)O)c4)C3)[C@H](C)[C@H]12.[Na+] [Crystalline form C, ertapenem sodium] = 98.7

Could you now consider this next compound?
Summary for this compound, C[C@@H](O)[C@H]1C(=O)N2C(C(=O)[O-])=C(S[C@@H]3CN[C@H](C(=O)Nc4cccc(C(=O)O)c4)C3)[C@H](C)[C@H]12.[Na+] [Crystalline form B, ertapenem sodium] : Content is 98.3
